These measurements were taken from PubChem BioAssay AID504941.

# METHOD: E. coli Tat export inhibitors, dose response, cherry-pick, set 2, plate reader (AID 504941)
# CONDITION_SUMMARY: E. coli Tat transport reporter; series mostly up to 38 µM
Out of some 1,200 compounds screened, about 170 (14%) were called active. These entries were drawn from the full list. Measured potencies and affinities stand elsewhere.
QUANTITY: outcome

CC1=NN(c2ccccc2)C(=O)C1c1ccccc1 (stereo not given) | inactive
Cc1ccc(SCc2noc(C(=O)NC(C)C)c2C(=O)O)cc1C | inactive
CC(C)(C)NC(=O)C[C@H]1C[C@H](C(=O)N2CCOCC2)[C@@]2(CCC3CCCC3)c3[nH]c4cc(-c5ccco5)ccc4c3CCN2C1=O | inactive
COc1ccc(/C(C)=N/NC(=O)CNC(=O)c2ccncc2)c(OC)c1 | inactive
Cc1c(Cl)cccc1NC(=O)C1NC(=O)CC1c1ccccc1 (stereo not given) | inactive
